measured_on: Xanthine dehydrogenase/oxidase (Bos taurus, UniProt P80457)
Sequence (P80457 whole entry): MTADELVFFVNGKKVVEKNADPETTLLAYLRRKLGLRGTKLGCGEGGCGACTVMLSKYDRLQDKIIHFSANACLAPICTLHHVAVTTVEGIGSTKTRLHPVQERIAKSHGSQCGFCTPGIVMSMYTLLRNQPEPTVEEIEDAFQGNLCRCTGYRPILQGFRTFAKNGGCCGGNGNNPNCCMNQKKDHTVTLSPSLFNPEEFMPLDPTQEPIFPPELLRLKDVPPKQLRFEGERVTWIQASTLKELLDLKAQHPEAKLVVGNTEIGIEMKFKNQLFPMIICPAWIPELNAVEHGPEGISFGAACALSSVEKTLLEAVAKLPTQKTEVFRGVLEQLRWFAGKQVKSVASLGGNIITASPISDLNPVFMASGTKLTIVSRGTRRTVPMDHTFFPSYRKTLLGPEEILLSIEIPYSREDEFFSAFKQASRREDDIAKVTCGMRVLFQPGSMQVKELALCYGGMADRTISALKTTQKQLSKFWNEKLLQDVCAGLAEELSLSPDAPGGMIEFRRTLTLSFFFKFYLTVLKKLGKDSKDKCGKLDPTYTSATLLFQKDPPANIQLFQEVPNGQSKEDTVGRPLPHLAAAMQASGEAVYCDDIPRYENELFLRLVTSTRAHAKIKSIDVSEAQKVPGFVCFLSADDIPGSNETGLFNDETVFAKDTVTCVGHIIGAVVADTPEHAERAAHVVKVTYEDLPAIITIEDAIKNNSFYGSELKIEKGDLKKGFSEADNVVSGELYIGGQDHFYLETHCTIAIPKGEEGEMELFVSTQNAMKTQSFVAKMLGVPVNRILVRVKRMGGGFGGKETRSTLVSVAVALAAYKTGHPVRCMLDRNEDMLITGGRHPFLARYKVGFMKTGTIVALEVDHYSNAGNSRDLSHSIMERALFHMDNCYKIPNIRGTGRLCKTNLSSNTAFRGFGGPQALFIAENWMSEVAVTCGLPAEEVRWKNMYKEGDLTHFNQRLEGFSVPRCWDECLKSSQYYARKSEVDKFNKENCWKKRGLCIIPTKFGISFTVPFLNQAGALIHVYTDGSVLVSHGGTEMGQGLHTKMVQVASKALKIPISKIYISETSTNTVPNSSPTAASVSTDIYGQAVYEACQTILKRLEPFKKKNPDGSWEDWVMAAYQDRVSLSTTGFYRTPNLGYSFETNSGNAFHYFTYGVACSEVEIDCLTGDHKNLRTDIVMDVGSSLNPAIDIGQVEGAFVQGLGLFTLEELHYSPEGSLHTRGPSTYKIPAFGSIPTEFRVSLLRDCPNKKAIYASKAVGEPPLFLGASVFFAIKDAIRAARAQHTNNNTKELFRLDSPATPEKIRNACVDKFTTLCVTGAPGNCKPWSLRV
quantity: pIC50
pIC50 is defined as minus the log10 of a concentration measured in mol/L.

### Prompt Return value of pIC50 for input "N#Cc1ccc(COc2cc(O)cc3oc4cc(O)c(O)cc4c(=O)c23)cc1" , no commentary.
### Response 5.33
